Source listed as paper PMC7684313.

assay-target: hCB1R (Homo sapiens, UniProt P21554)
Construct: expressed in transfected cells; membranes
Sequence (P21554 whole entry): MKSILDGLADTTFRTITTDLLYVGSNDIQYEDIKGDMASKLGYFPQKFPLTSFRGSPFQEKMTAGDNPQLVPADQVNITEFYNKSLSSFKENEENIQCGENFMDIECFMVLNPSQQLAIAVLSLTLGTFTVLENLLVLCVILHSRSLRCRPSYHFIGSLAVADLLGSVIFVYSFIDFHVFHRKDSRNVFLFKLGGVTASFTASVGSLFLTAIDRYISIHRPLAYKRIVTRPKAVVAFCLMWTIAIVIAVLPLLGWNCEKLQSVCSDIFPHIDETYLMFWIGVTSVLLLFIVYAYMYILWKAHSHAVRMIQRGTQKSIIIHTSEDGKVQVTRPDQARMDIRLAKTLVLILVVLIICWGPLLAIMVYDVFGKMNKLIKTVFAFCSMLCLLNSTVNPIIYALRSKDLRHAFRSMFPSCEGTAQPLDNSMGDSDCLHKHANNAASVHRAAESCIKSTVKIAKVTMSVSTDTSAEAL
procedure-details: cell-based
Assay type: cell-based
assay-setup: CHO; read-out: hCB1R Emax, inhibition of FSK-stimulated cAMP accumulation
# label = y if Emax >= 60% else n

# input Confirm if Emax reported for the compound C=C(C)[C@@H]1CCC(C)=C[C@H]1c1c(O)cc(CCCCC)cc1O [CBD, cannabidiol, reference compound] is 60% or above.
# output n

###

In this section we review reported Emax values for a set of compounds.
assay-target: hCB2R (Homo sapiens)
procedure-details: hCB2R-dependent recruitment of βarrestin2 (PathHunter CHO cells)
Format: cell-based
Design: expressed in transfected cells; membranes
assay-setup: CHO
Give just the number in %; leave the unit off.

Below: 3 compounds and their reported Emax.
>  <compound>
C=C(C)[C@@H]1CCC(C)=C[C@H]1c1c(O)cc(CCCCC)cc1O [CBD, cannabidiol, reference compound]

>  <Emax (%)>
23

$$$$
>  <compound>
C=C(C)[C@@H]1CCC(C)=C[C@H]1c1c(O)cc(CCCCC)c(C(=O)O)c1O

>  <Emax (%)>
18

$$$$
>  <compound>
CCCc1cc(O)c2c(c1)OC(C)(C)[C@@H]1CCC(C)=C[C@@H]21 [THCV, ∆^9-tetrahydrocannabivarin]

>  <Emax (%)>
50

$$$$

# input Query: Emax; subject: CCCCCc1cc(O)c2c(c1)OC(C)(CCC=C(C)C)C=C2 (stereo not shown)
# output 12

###

assay-target: hCB2R (Homo sapiens, UniProt P34972)
Sequence (P34972 whole entry): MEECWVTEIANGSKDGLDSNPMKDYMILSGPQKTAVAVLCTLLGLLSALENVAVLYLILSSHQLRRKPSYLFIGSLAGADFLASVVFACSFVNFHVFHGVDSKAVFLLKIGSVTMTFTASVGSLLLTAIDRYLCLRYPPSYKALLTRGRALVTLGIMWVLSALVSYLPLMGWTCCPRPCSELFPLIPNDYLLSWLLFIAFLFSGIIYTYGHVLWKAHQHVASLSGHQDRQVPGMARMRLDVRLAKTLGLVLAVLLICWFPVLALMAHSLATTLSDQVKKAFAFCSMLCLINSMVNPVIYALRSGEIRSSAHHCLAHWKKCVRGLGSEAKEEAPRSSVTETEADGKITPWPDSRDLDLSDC
procedure-details: [^3H]CP55,940 displacement from hCB2R CHO cell membranes
assay-setup: bottom of the concentration–response curve of [^3H]CP55,940 displacement; %CP55,940 response, mean ± SEM
readout-label: hCB2R Emin (%)
Give the value in % but do not write % after it.

Below: 5 molecules and their reported hCB2R Emin.
>  <molecule>
CCCc1cc(O)c2c(c1)OC(C)(C)[C@@H]1CCC(C)=C[C@@H]21 [THCV, ∆^9-tetrahydrocannabivarin]

>  <hCB2R Emin [%]>
27

$$$$
>  <molecule>
CCCCCc1cc(O)c(C/C=C(\C)CCC=C(C)C)c(O)c1

>  <hCB2R Emin [%]>
32

$$$$
>  <molecule>
C=C(C)[C@@H]1CCC(C)=C[C@H]1c1c(O)cc(CCC)cc1O

>  <hCB2R Emin [%]>
22

$$$$
>  <molecule>
CCCCCc1cc(O)c2c(c1)OC(C)(C)[C@@H]1CCC(C)=C[C@@H]21 [∆^9-THC, ∆^9-tetrahydrocannabinol, reference compound]

>  <hCB2R Emin [%]>
7.4

$$$$
>  <molecule>
CCCCCc1cc(O)c2c(c1)OC(C)(CCC=C(C)C)C=C2 (stereo not drawn)

>  <hCB2R Emin [%]>
9.7

$$$$

# input Item under review: C=C(C)[C@@H]1CCC(C)=C[C@H]1c1c(O)cc(CCCCC)c(C(=O)O)c1O . Reported hCB2R Emin?
# output 30

# input For CCCCCCC(C)(C)c1ccc([C@@H]2C[C@H](O)CC[C@H]2CCCO)c(O)c1 [CP55,940, reference compound] , what is its reported hCB2R Emin?
# output 0.0

###

assay-target: hCB1R (Homo sapiens)
Construct: expressed in transfected cells; membranes
procedure-details: biochemical
Format: binding
readout-label: extent of [^3H]CP55,940 displacement from hCB1R, in words

>  <compound>
CCCc1cc(O)c2c(c1)OC(C)(C)[C@@H]1CCC(C)=C[C@@H]21 [THCV, ∆^9-tetrahydrocannabivarin]

>  <reported-result>
partially displaced

$$$$
>  <compound>
CCCCCc1cc2c(c(O)c1C(=O)O)[C@@H]1C=C(C)CC[C@H]1C(C)(C)O2 [∆^9-THCa, ∆^9-tetrahydrocannabinolic acid]

>  <reported-result>
partially displaced

$$$$
>  <compound>
CCCCCc1cc(O)c2c(c1)OC(C)(CCC=C(C)C)C=C2 (stereo not shown)

>  <reported-result>
partially displaced

$$$$
